System: EKVX
assay_protocol: NCI tumour cell line growth inhibition, 48 h
The source made the active and inactive calls. No stated cut-off is given here; in the data, active = GI50 up to about 1.1 µM and inactive = higher.
outcome_measure: GI50

The examples below pair each entry with its known result.
[[record]]
compound = "CC(CO)C1C[C@H](O)[C@@]2(C)CC(=O)C=C(CO)[C@@H]2C1 (stereo partly specified)"
outcome_measure = "GI50"
value_measured = "> 100 µM (inactive)"

[[record]]
compound = "CCCCN(CC)C(=O)C(=O)C1C(=O)Nc2ccccc2[S+]1[O-] (stereo unspecified)"
outcome_measure = "GI50"
value_measured = "55.6 µM (inactive)"

[[record]]
compound = "Nc1nc2cc(CNc3ccc(C(=O)NC(CCC(=O)O)C(=O)O)cc3)ccc2nc1-c1ccccc1 (stereo unspecified)"
outcome_measure = "GI50"
value_measured = "> 10 µM (inactive)"


Below is a list of compounds. For each, state its recorded GI50.
1. Cc1cc(=O)oc2c(C)c(O)ccc12
2. O=[N+]([O-])c1ccc(Cl)cc1N/N=C/c1ccnc2ccccc12
3. O=C(Nc1ccc(C(F)(F)F)cc1[N+](=O)[O-])C(=O)C(C(=O)c1ccc2ccccc2c1)C1OC(=O)c2ccccc21 (stereo unspecified)

1. > 100 µM (inactive)
2. 22.8 µM (inactive)
3. 3.32 µM (inactive)
